tested on: A549 cells; assay: MTT assay, IC50 and MTC; settings: Homo sapiens, A549, 24 h, read-out: IC50 ± SEM
Reported Endpoint: IC50

| Compound | Measured Target | Measured |
| --- | --- | --- |
| Cl.Cl.Cl.OCCN1CCN(CC(O)CNc2ccccc2)CC1 (stereo not shown) | A549 cells | 5060 µM |
| COc1ccc2nc3c(c(NCCN4CCNCC4)c2c1)CCCC3.Cl.Cl.Cl | A549 cells | 40 µM |
| Cc1cc(OCC(O)CN2CCN(CCO)CC2)ccc1Cl.Cl.Cl (stereo not shown) | A549 cells | 640 µM |
| Cl.Cl.Cl.OCCN1CCN(CCCNc2cccc3ccccc23)CC1 | A549 cells | 450 µM |

* * *

assay: WST-1 cytotoxicity test, HeLa; type: cell-based; conditions: human, HeLa cells, doxorubicin 1 µM cytotoxicity control, WST-1, mean ± SD, read-out: relative viability (%) compared to untreated control
Reported Endpoint: viability at 48 h, 1 µM (%)

| Compound | Measured |
| --- | --- |
| COc1cccc2c1C(=O)c1c(O)c3c(c(O)c1C2=O)C[C@@](O)(C(=O)CO)C[C@@H]3O[C@H]1C[C@H](N)[C@H](O)[C@H](C)O1 [DOX, doxorubicin, reference compound] | 76 |

* * *

viability at 48 h, 100 µM listing for selected compounds.
assay: WST-1 cytotoxicity test, MRC-5; format: cell-based; conditions: human, MRC-5 cells; MRC-5, 100 µM, 48 h, WST-1, mean ± SD of three experiments; read-out: relative viability (%) compared to untreated control
Reported Endpoint: viability at 48 h, 100 µM (%)

| Compound | Measured |
| --- | --- |
| COc1ccc2nc3c(c(NCCN4CCN(CCO)CC4)c2c1)CCCC3.Cl.Cl.Cl | 9 |
| Cl.Cl.OC(CNc1ccccc1)CNc1ccccc1 | 120 |
| OCCN1CCN(CC(O)CN2CCN(CCO)CC2)CC1 | 119 |
| Cc1cc(OCC(O)CN2CCN(CCO)CC2)ccc1Cl.Cl.Cl (centres unmarked) | 93 |
| COc1ccc(NCCCN2CCN(CCO)CC2)cc1.Cl.Cl.Cl | 104 |
| Cl.Cl.Cl.OCCN1CCN(CCCNc2ccccc2)CC1 | 102 |
| Cl.Cl.Cl.OCCN1CCN(CC(O)CNc2ccccc2)CC1 (centres unmarked) | 102 |
| Cl.Cl.Cl.OCCN1CCN(CCCNc2cccc3ccccc23)CC1 | 94 |

* * *

assay: WST-1 cytotoxicity test, MCF-7; assay type: cell-based; conditions: human, MCF-7 cells; MCF-7, doxorubicin 1 µM cytotoxicity control, WST-1, mean ± SD; read-out: relative viability (%) compared to untreated control

| Molecule | Unit Symbol | viability at 48 h, 1 µM |
| --- | --- | --- |
| COc1cccc2c1C(=O)c1c(O)c3c(c(O)c1C2=O)C[C@@](O)(C(=O)CO)C[C@@H]3O[C@H]1C[C@H](N)[C@H](O)[C@H](C)O1 [DOX, doxorubicin, reference compound] | % | 32 |

* * *

test: WST-1 cytotoxicity test, MOLT-4; type: cell-based; details: human, MOLT-4 cells; MOLT-4, 10 µM, 48 h, WST-1, mean ± SD of three experiments; read-out: relative viability (%) compared to untreated control

| Molecule | viability at 48 h, 10 µM |
| --- | --- |
| OCCN1CCN(CC(O)CN2CCN(CCO)CC2)CC1 [Compound 8] | 106% |
| Cl.Cl.OC(CNc1ccccc1)CNc1ccccc1 [Compound 9] | 103% |
| Cl.Cl.Cl.OCCN1CCN(CC(O)CNc2ccccc2)CC1 (stereo not drawn) [Compound 10] | 112% |
| Cc1cc(OCC(O)CN2CCN(CCO)CC2)ccc1Cl.Cl.Cl (stereo not drawn) [Compound 4] | 88% |
| COc1ccc2nc3c(c(NCCN4CCN(CCO)CC4)c2c1)CCCC3.Cl.Cl.Cl [Compound 3] | 81% |
| COc1ccc(NCCCN2CCN(CCO)CC2)cc1.Cl.Cl.Cl [Compound 7] | 93% |
| Cl.Cl.Cl.OCCN1CCN(CCCNc2cccc3ccccc23)CC1 [Compound 6] | 90% |
| Cl.Cl.Cl.OCCN1CCN(CCCNc2ccccc2)CC1 [Compound 5] | 93% |
| COc1ccc2nc3c(c(NCCN4CCNCC4)c2c1)CCCC3.Cl.Cl.Cl [Compound 2] | 0% |
